Below, each entry is listed alongside its reported % Hit rate.
- Tested on: DU145
- method summary: 11×7 synergism hit rate
- Assay type: cell-based
- condition parameters: Prostate Cancer DU145, combination with SR16388
Number only, in %; omit the unit.

CC[C@]1(O)C[C@H]2CN(CCc3c([nH]c4ccccc34)[C@@](C(=O)OC)(c3cc4c(cc3OC)N(C=O)[C@H]3[C@@](O)(C(=O)OC)[C@H](OC(C)=O)[C@]5(CC)C=CCN6CC[C@]43[C@@H]65)C2)C1 | 1

input: Name the reported % Hit rate value associated with the compound CC(=O)O[C@H]1C(=O)[C@@]2(C)[C@H]([C@H](OC(=O)c3ccccc3)[C@]3(O)C[C@H](OC(=O)[C@H](O)[C@@H](NC(=O)c4ccccc4)c4ccccc4)C(C)=C1C3(C)C)[C@]1(OC(C)=O)CO[C@@H]1C[C@@H]2O
output: 3

input: Name the reported % Hit rate value associated with the compound CC(=O)O[C@@]12CO[C@@H]1C[C@H](O)[C@@]1(C)C(=O)[C@H](O)C3=C(C)[C@@H](OC(=O)[C@H](O)[C@@H](NC(=O)OC(C)(C)C)c4ccccc4)C[C@@](O)([C@@H](OC(=O)c4ccccc4)[C@H]21)C3(C)C
output: 1

input: Name the reported % Hit rate value associated with the compound CC[C@]1(O)C[C@@H]2CN(CCc3c([nH]c4ccccc34)[C@@](C(=O)OC)(c3cc4c(cc3OC)N(C)[C@H]3[C@@](O)(C(=O)OC)[C@H](OC(C)=O)[C@]5(CC)C=CCN6CC[C@]43[C@@H]65)C2)C1
output: 0

* * *

- Test system: various cancer cell lines
- method summary: 11×7 synergism hit rate over all cell lines (by algorism)
- Format: cell-based
- condition parameters: in combination with SR16388
measured metric: interaction with SR16388 in 11×7 experiments

CC[C@]1(O)C[C@@H]2CN(CCc3c([nH]c4ccccc34)[C@@](C(=O)OC)(c3cc4c(cc3OC)N(C)[C@H]3[C@@](O)(C(=O)OC)[C@H](OC(C)=O)[C@]5(CC)C=CCN6CC[C@]43[C@@H]65)C2)C1 [Vinblastine] | synergistic effect
CC(=O)O[C@@]12CO[C@@H]1C[C@H](O)[C@@]1(C)C(=O)[C@H](O)C3=C(C)[C@@H](OC(=O)[C@H](O)[C@@H](NC(=O)OC(C)(C)C)c4ccccc4)C[C@@](O)([C@@H](OC(=O)c4ccccc4)[C@H]21)C3(C)C [Docetaxel] | synergistic effect
CC[C@]1(O)C[C@H]2CN(CCc3c([nH]c4ccccc34)[C@@](C(=O)OC)(c3cc4c(cc3OC)N(C=O)[C@H]3[C@@](O)(C(=O)OC)[C@H](OC(C)=O)[C@]5(CC)C=CCN6CC[C@]43[C@@H]65)C2)C1 [Vincristine] | synergistic effect
CC(=O)O[C@H]1C(=O)[C@@]2(C)[C@H]([C@H](OC(=O)c3ccccc3)[C@]3(O)C[C@H](OC(=O)[C@H](O)[C@@H](NC(=O)c4ccccc4)c4ccccc4)C(C)=C1C3(C)C)[C@]1(OC(C)=O)CO[C@@H]1C[C@@H]2O [Paclitaxel] | synergistic effect

* * *

- Test system: MCF7
- method summary: 11×7 synergism hit rate
- Type: cell-based
- condition parameters: Breast Cancer MCF7, combination with SR16388
Below, each entry is listed alongside its reported % Hit rate.
Number only, in %; omit the unit.

CC[C@]1(O)C[C@H]2CN(CCc3c([nH]c4ccccc34)[C@@](C(=O)OC)(c3cc4c(cc3OC)N(C=O)[C@H]3[C@@](O)(C(=O)OC)[C@H](OC(C)=O)[C@]5(CC)C=CCN6CC[C@]43[C@@H]65)C2)C1 | 25
CC[C@]1(O)C[C@@H]2CN(CCc3c([nH]c4ccccc34)[C@@](C(=O)OC)(c3cc4c(cc3OC)N(C)[C@H]3[C@@](O)(C(=O)OC)[C@H](OC(C)=O)[C@]5(CC)C=CCN6CC[C@]43[C@@H]65)C2)C1 | 17

input: Find the measured % Hit rate: item CC(=O)O[C@H]1C(=O)[C@@]2(C)[C@H]([C@H](OC(=O)c3ccccc3)[C@]3(O)C[C@H](OC(=O)[C@H](O)[C@@H](NC(=O)c4ccccc4)c4ccccc4)C(C)=C1C3(C)C)[C@]1(OC(C)=O)CO[C@@H]1C[C@@H]2O , target or system MCF7.
output: 31

input: Find the measured % Hit rate: item CC(=O)O[C@@]12CO[C@@H]1C[C@H](O)[C@@]1(C)C(=O)[C@H](O)C3=C(C)[C@@H](OC(=O)[C@H](O)[C@@H](NC(=O)OC(C)(C)C)c4ccccc4)C[C@@](O)([C@@H](OC(=O)c4ccccc4)[C@H]21)C3(C)C , target or system MCF7.
output: 19

* * *

Below, each entry is listed alongside its reported % Hit rate.
- System: SKMEL2
- method summary: 11×7 synergism hit rate
- Type: cell-based
- condition parameters: Melanoma SKMEL2, combination with SR16388
Number only, in %; omit the unit.

These recorded examples may help you get a feel for the data.
CC[C@]1(O)C[C@@H]2CN(CCc3c([nH]c4ccccc34)[C@@](C(=O)OC)(c3cc4c(cc3OC)N(C)[C@H]3[C@@](O)(C(=O)OC)[C@H](OC(C)=O)[C@]5(CC)C=CCN6CC[C@]43[C@@H]65)C2)C1 | 3
CC[C@]1(O)C[C@H]2CN(CCc3c([nH]c4ccccc34)[C@@](C(=O)OC)(c3cc4c(cc3OC)N(C=O)[C@H]3[C@@](O)(C(=O)OC)[C@H](OC(C)=O)[C@]5(CC)C=CCN6CC[C@]43[C@@H]65)C2)C1 | 25
CC(=O)O[C@H]1C(=O)[C@@]2(C)[C@H]([C@H](OC(=O)c3ccccc3)[C@]3(O)C[C@H](OC(=O)[C@H](O)[C@@H](NC(=O)c4ccccc4)c4ccccc4)C(C)=C1C3(C)C)[C@]1(OC(C)=O)CO[C@@H]1C[C@@H]2O | 29

Next compound, % Hit rate to be filled in.
input: Name the reported % Hit rate value associated with the compound CC(=O)O[C@@]12CO[C@@H]1C[C@H](O)[C@@]1(C)C(=O)[C@H](O)C3=C(C)[C@@H](OC(=O)[C@H](O)[C@@H](NC(=O)OC(C)(C)C)c4ccccc4)C[C@@](O)([C@@H](OC(=O)c4ccccc4)[C@H]21)C3(C)C
output: 12
